Reference source: patent US5385894A

assay: log P (Table 1); format: physicochemical
measured parameter: logP
Kindly provide the number alone.

> print(dat)
                                   compound  assay.result
1  CCCCCN(C(=O)c1ccc(S(C)(=O)=O)cc1)c1ccc2nc(CCC)n(Cc3ccc(-c4ccccc4-c4nn[nH]n4)cc3)c(=O)c2c1           4.4

Given the entry `CCCOC(=O)N(Cc1ccccn1)c1ccc2nc(COC)n(Cc3ccc(-c4ccccc4-c4nn[nH]n4)cc3)c(=O)c2c1` , report its measured logP.
3.3

Quick one: logP of `CCCc1nc2ccc(N(Cc3ccc(C(=O)OC)cc3)C(=O)c3ccccc3)cc2c(=O)n1Cc1ccc(-c2ccccc2-c2nn[nH]n2)cc1` ?
4.4

logP lookup needed for `CCCOC(=O)N(Cc1cccnc1)c1ccc2nc(CCC)n(Cc3ccc(-c4ccccc4-c4nn[nH]n4)cc3)c(=O)c2c1` , thanks.
3.8
